# pIC50 values compiled below
# tested system: SARS-CoV-2 NSP3 Mac1 (Severe acute respiratory syndrome coronavirus 2)
# experimental protocol: biochemical
# Assay type: binding
# test settings: MIDAS hit compounds and analogues, top concentration 125 µM, 8-point 1:1 dilution, duplicate; read-out: IC50
pIC50: −log10 of the molar value.
reported endpoint: pIC50

INSERT INTO measurements (compound, reported_endpoint, assay_result) VALUES
  ('CCOc1ccc2c(C)c(C(=O)N[C@@H]3CCNC[C@H]3O)oc2c1OCC [IAL-MD0127]', 'pIC50', 4.42),
  ('CC(=O)Nc1ccc(C=Cc2cc(C(=O)O)c3cc(C)ccc3n2)cc1 [IAL-MD0059]', 'pIC50', 4.64),
  ('Cn1ccc2c(-c3ccc(Cn4ccnc4)cn3)ccnc21 [IAL-MD0145]', 'pIC50', 4.85),
  ('CCNC(=O)c1ccc(-c2ccnc3c2ccn3C)o1 [IAL-MD0147]', 'pIC50', 5.17),
  ('CN(C)C(=O)c1ccc(-c2ccnc3c2ccn3C)o1 [IAL-MD0133]', 'pIC50', 5.07),
  ('CC(C)NC(=O)c1ccc(-c2ccnc3c2ccn3C)o1 [IAL-MD0130]', 'pIC50', 5.12),
  ('CC(=O)N1CCN(C(=O)c2ccc(-c3ncnc4[nH]ccc34)cc2)CC1 [IAL-MD0143]', 'pIC50', 4.35),
  ('Cn1ccc2c(-c3ncccc3C(=O)N3CCCCC3)ccnc21 [IAL-MD0138]', 'pIC50', 4.44),
  ('CN1CCC(Cn2ccnc2-c2ccc(-c3ccccc3C#N)o2)C1 (centres unmarked) [IAL-MD0129]', 'pIC50', 4.85),
  ('COc1ccc(-c2cc(C(=O)N(C)C)c3ccccc3n2)cc1 [IAL-MD0088]', 'pIC50', 4.62),
  ('CONC(=O)c1cc(-c2ccc(OC)cc2)nc2ccccc12 [IAL-MD0024]', 'pIC50', 4.17),
  ('Nc1c(C(=O)NC2CC2)sc2nc(-c3ccccn3)ccc12 [IAL-MD0017]', 'pIC50', 4.90),
  ('CN(C)C(=O)c1ccc(-c2ccnc3c2ccn3C)nc1 [IAL-MD0140]', 'pIC50', 5.16),
  ('CCCNC(=O)c1ccc(-c2ccnc3c2ccn3C)o1 [IAL-MD0148]', 'pIC50', 5.11),
  ('Cn1ccc2c(-c3ccc(C(=O)N4CCOCC4)o3)ccnc21 [IAL-MD0131]', 'pIC50', 5.31),
  ('Cc1ccc(-c2cc(C(=O)N3CCOCC3)c3cnn(C(C)C)c3n2)s1 [IAL-MD0051]', 'pIC50', 4.90),
  ('CN(C)C1CCN(C(=O)c2ccc(-c3ncnc4[nH]ccc34)cc2)C1 (centres unmarked) [IAL-MD0141]', 'pIC50', 4.60),
  ('CC(C)n1ncc2c(C(=O)N3CCNC(=O)C3)cc(-c3ccco3)nc21 [IAL-MD0070]', 'pIC50', 4.79),
  ('CCn1ncc2c(C(=O)NCC(=O)N(C)C)cc(-c3cccs3)nc21 [IAL-MD0074]', 'pIC50', 4.60),
  ('Cn1ccc2c(-c3ccc(C(=O)NC4CC4)o3)ccnc21 [IAL-MD0132]', 'pIC50', 5.14);

The measurements presented in this section are drawn from paper PMC9965906.
